Parameter pIC50: see the listing below.
Biological target: C-C chemokine receptor type 1 (Homo sapiens)
Sequence (P32246 whole entry): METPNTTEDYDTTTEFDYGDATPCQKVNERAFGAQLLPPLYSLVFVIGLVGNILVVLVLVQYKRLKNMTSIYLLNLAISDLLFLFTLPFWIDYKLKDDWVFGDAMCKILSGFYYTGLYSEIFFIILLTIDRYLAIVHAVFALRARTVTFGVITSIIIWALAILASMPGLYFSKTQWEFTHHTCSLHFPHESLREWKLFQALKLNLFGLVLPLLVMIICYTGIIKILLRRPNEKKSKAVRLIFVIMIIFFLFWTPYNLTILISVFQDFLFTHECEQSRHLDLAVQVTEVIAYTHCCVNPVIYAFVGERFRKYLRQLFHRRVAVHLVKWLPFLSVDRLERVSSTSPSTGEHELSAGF
Assay: Displacement of [125I]MIP-1-alpha from human recombinant CCR1 expressed in HEK293 cells
pIC50: −log10 of the molar value.
parameter: pIC50

Cc1cc(C(F)(F)F)ccc1NC(=O)N1CCC[C@@H]1C(=O)N(C)Cc1ccc(Cl)cc1
7.30
CN(Cc1ccc(Cl)cc1)C(=O)[C@H]1CCCN1C(=O)Nc1ccc(Cl)cc1
6.57
CN(Cc1ccc(Cl)cc1)C(=O)[C@H]1CCCN1C(=O)Nc1ccc(C(F)(F)F)cc1
6.85
Cc1ccc(CN(C)C(=O)[C@H]2CCCN2C(=O)Nc2ccc(Cl)cc2)cc1
5.24
O=C([C@H]1CCCN1C(=O)Nc1ccc(Cl)cc1)N(CCO)Cc1ccccc1Cl
4.37
CN(Cc1ccc(Cl)cc1)C(=O)[C@H]1CCCN1C(=O)Nc1ccc(C(F)(F)F)cc1F
7.64
